Test system: MCF7
procedure.details: NCI tumour cell line growth inhibition, 48 h
Active and inactive are the calls of the source. Cut-off read from the data, not from the text of the source: active = GI50 up to about 1.1 µM and inactive = higher.
endpoint.label: GI50

[[record]]
compound = "CN(C)c1ccc2nc(CC(O)(C(F)(F)F)C(F)(F)F)ccc2c1"
endpoint_label = "GI50"
result = "> 10 µM (inactive)"

[[record]]
compound = "O=C(CCc1cccc(O)c1)NCCc1ccc(O)cc1"
endpoint_label = "GI50"
result = "> 100 µM (inactive)"


State recorded GI50 for all listed compounds.
1. Cc1ccc(/C=N/n2c(-c3ccc(C)cc3)n[nH]c2=O)cc1
2. NC(=O)CN1C=CCC(C(N)=O)=C1 [CARICOTAMIDE]
3. COC(Cc1cc(C(O)(c2ccc(C(C)(C)C)cc2)c2cc(CC(OC)(c3cc(C(OC)(c4ccc(C(C)(C)C)cc4)c4ccc(C(C)(C)C)cc4)c(C)cc3C)c3cc(C(OC)(c4ccc(C(C)(C)C)cc4)c4ccc(C(C)(C)C)cc4)c(C)cc3C)c(C)cc2C)c(C)cc1C)(c1cc(C(OC)(c2ccc(C(C)(C)C)cc2)c2ccc(C(C)(C)C)cc2)c(C)cc1C)c1cc(C(OC)(c2ccc(C(C)(C)C)cc2)c2ccc(C(C)(C)C)cc2)c(C)cc1C
4. COc1ccc(C2=NN=C3C(c4ccccc4)=Nc4ccccc4N3C2)cc1

**A:**
1. > 100 µM (inactive)
2. > 100 µM (inactive)
3. > 75 µM (inactive)
4. 21.7 µM (inactive)

State recorded GI50 for all listed compounds.
1. O=C(Nc1ccc(Cl)cc1)c1cc(S(=O)(=O)Nc2nnc3c(Cl)cc(C(F)(F)F)cn23)c(S)cc1Cl
2. O=C1C(CN2CCCC2)CCC1CN1CCCC1 (stereo not drawn)

**A:**
> 100 µM (inactive)
19.4 µM (inactive)

###

Tested on: TK-10
procedure.details: NCI tumour cell line growth inhibition, 48 h
The source made the active and inactive calls. Rule as the data show it: active = GI50 up to about 1.1 µM and inactive = higher.
Outcome (select one): y for active, n for inactive

[[record]]
compound = "CCOC(=O)C(CCN1CCC2(CC1)C(=O)N(C)CN2c1ccccc1)C(=O)OCC"
subject_of_test = "TK-10"
class_name = "n"


**Q:** Which outcome was assigned to Cc1ccc([N+](=O)[O-])cc1S(=O)(=O)Nc1ccc(C2=NNC(c3ccccc3O)C2)cc1 (stereo not given) in this test?
**A:** y

**Q:** Which outcome was assigned to "COc1cc2nc(Sc3c([N+](=O)[O-])ncn3C)[nH]c2cc1OC" in this test?
**A:** n

**Q:** Which outcome was assigned to "CCc1nc(N)nc(N)c1-c1ccc(NC)c([N+](=O)[O-])c1" in this test?
**A:** n

**Q:** Which outcome was assigned to "Clc1ccc(Cc2nc3cc(CCN4CCN(c5ccccc5)CC4)ccc3[nH]2)cc1" in this test?
**A:** n

**Q:** Which outcome was assigned to "Cc1c2cc[n+](COC(=O)c3ccccc3)cc2c(C)c2c1[nH]c1ccccc12" in this test?
**A:** n

**Q:** Which outcome was assigned to "CC(=O)c1c(SCCN2CCCC2)n(-c2ccccc2)c(=S)n(-c2ccccc2)c1=O" in this test?
**A:** n

###

Field: GI50. Provide a value for each of the compounds that follow.
Test system: NCI-H460
procedure.details: NCI tumour cell line growth inhibition, 48 h
Activity calls are given as the source filed them. Cut-off read from the data, not from the text of the source: active = GI50 up to about 1.1 µM and inactive = higher.

In the examples that follow, each entry is paired with its recorded GI50.
[[record]]
compound = "CCOC(=O)CNC(=O)OCc1ccccc1"
result = "> 100 µM (inactive)"

[[record]]
compound = "CS(=O)(=O)N1CC(CCl)c2ccc([N+](=O)[O-])cc21 (stereo unspecified)"
result = "38.2 µM (inactive)"

[[record]]
compound = "CC(C)NC(=O)OCc1c(COC(=O)NC(C)C)c(-c2ccc[n+](COC(=O)C(C)(C)C)c2)n2c1CCC2"
result = "40.9 µM (inactive)"


State recorded GI50 for all listed compounds.
1. CCCCCCCCCCCCC1NC(=N)NC2(CCCO2)C1C(=O)OC (stereo unspecified)
2. CNc1ccc(-c2nc3cc(C)ccc3o2)cc1
3. COc1cccc(-c2cc(O)c3cc(N)ccc3n2)c1
4. CN(C)c1ccc2nc(CC(O)(C(F)(F)F)C(F)(F)F)ccc2c1
5. NS(=O)(=O)c1nnc(NS(=O)(=O)c2ccc(Cl)cc2)s1

**A:**
1: 2.99 µM (inactive); 2: > 100 µM (inactive); 3: 3.75 µM (inactive); 4: > 10 µM (inactive); 5: > 100 µM (inactive)

State recorded GI50 for all listed compounds.
1. O=c1c(C(c2ccccc2)c2c(O)oc3cc(O)ccc3c2=O)c(O)oc2cc(O)ccc12
2. CCS[C@H]1NC(=O)C1[C@H](C)O[Si](C)(C)C(C)(C)C (stereo partly specified)
3. O=C(Nc1c(O)[nH]c(=S)[nH]c1=O)c1ccc2ccccc2n1

**A:**
1: > 100 µM (inactive); 2: > 100 µM (inactive); 3: > 100 µM (inactive)

###

Tested on: OVCAR-5
procedure.details: NCI tumour cell line growth inhibition, 48 h
The source made the active and inactive calls. Rule as the data show it: active = GI50 up to about 1.1 µM and inactive = higher.
Field: GI50. Provide a value for each of the compounds that follow.

In the examples that follow, each entry is paired with its recorded GI50.
[[record]]
compound = "COc1cccc2c1CCc1c(-c3ccc(F)cc3)cc(-c3ccc4ccccc4n3)nc1-2"
endpoint_label = "GI50"
result = "> 100 µM (inactive)"

[[record]]
compound = "NC(=O)NC1NC(=O)NC1=O (stereo not given) [ALLANTOIN]"
endpoint_label = "GI50"
result = "> 100 µM (inactive)"

[[record]]
compound = "O=C(/C=C/c1ccc2c(c1)OCO2)CC(=O)C(=O)c1c[nH]c2ccccc12"
endpoint_label = "GI50"
result = "77.4 µM (inactive)"

[[record]]
compound = "COC(=O)/C=C/CCC#Cc1ccccc1C#CCC/C=C/C(=O)OC"
endpoint_label = "GI50"
result = "23.5 µM (inactive)"


API: the following record is the query input.
**Q:** Entry under review: O=C1C2[C@@H](C(=O)N1c1ccc(Br)cc1)C13C(=CC2([N+](=O)[O-])[C@@H]2C(=O)N(c4ccc(Br)cc4)C(=O)[C@@H]21)c1ccccc1N3c1ccccc1 (stereo not given in full) . Reported GI50?
**A:** > 100 µM (inactive)

###

Test system: OVCAR-3
procedure.details: NCI tumour cell line growth inhibition, 48 h
Active and inactive are the calls of the source. No stated cut-off is given here; in the data, active = GI50 up to about 1.1 µM and inactive = higher.
Outcome (select one): YES = active, NO = inactive

**Q:** Which outcome was assigned to CC1(C(=O)O)CCC(C(=O)O)C(C)(C)O1 (stereo unspecified) in this test?
**A:** NO

**Q:** Which outcome was assigned to "CCO/C([O-])=C(/C=O)[n+]1c(C)n(C)c2ccccc21" in this test?
**A:** NO

**Q:** Which outcome was assigned to "COc1cc(CNc2nc3cc(C(F)(F)F)ccc3nc2-c2ccccc2)cc(OC)c1OC" in this test?
**A:** NO

**Q:** Which outcome was assigned to COc1ccc2[nH]c3c(c2c1)CC(=S)N1CCCC(CC3=O)C1 (stereo unspecified) in this test?
**A:** NO

**Q:** Which outcome was assigned to "CC(=O)CC(=O)/C=C/c1cccs1" in this test?
**A:** NO

###

Field: GI50. Provide a value for each of the compounds that follow.
System: HOP-18
procedure.details: NCI tumour cell line growth inhibition, 48 h
Calls of active or inactive are those of the source. Cut-off read from the data, not from the text of the source: active = GI50 up to about 1.1 µM and inactive = higher.

In the examples that follow, each entry is paired with its recorded GI50.
[[record]]
compound = "COc1cc(C2C(Cl)C(=O)N2NC(=O)c2ccccc2O)ccc1O (stereo not given)"
subject_of_test = "HOP-18"
result = "34.8 µM (inactive)"

[[record]]
compound = "O=c1[nH]c(=O)n(C2OC3COC2C3O)cc1F (stereo not given)"
subject_of_test = "HOP-18"
result = "> 100 µM (inactive)"

[[record]]
compound = "CC(=O)NC1=C(NCC(C)C)C(=O)c2ccccc2C1=O"
subject_of_test = "HOP-18"
result = "12.8 µM (inactive)"


State recorded GI50 for all listed compounds.
1. CCOC(=O)CN1C(=O)c2cccc3cc([N+](=O)[O-])cc(c23)C1=O
2. COc1cc(/C=C/c2csnn2)cc(OC)c1OC

**A:**
["19.7 µM (inactive)", "> 100 µM (inactive)"]

###

Test system: CCRF-CEM
procedure.details: NCI tumour cell line growth inhibition, 48 h
Active and inactive are the calls of the source. Rule as the data show it: active = GI50 up to about 1.1 µM and inactive = higher.
Outcome (select one): true (1) for active, false (0) for inactive

Below, 10 molecules whose answers are already recorded.
[[record]]
molecule = "O=C(c1ccccc1)c1cc(-c2ccccc2)c(-c2ccccc2)[nH]c(=O)c1=O"
class_name = "false (0)"

[[record]]
molecule = "O=C(CC(C(=O)c1cccs1)c1ccsc1)c1cccs1 (configuration not stated)"
class_name = "false (0)"

[[record]]
molecule = "O=C(O)c1ccccc1/C=N\\N=C1NCCN1"
class_name = "false (0)"

[[record]]
molecule = "Cc1ccc(S(=O)(=O)NC(=O)NC(Cc2ccc(O)c(O)c2)C(=O)O)cc1 (configuration not stated)"
class_name = "false (0)"

[[record]]
molecule = "CCc1cc(Cc2cc(Cl)c(NC(=O)C(=O)C3NC(=O)NC3=O)c(CC)c2)cc(Cl)c1NC(=O)C(=O)C1NC(=O)NC1=O (configuration not stated)"
class_name = "false (0)"

[[record]]
molecule = "CCn1c(-c2c(Cl)cc(O)cc2Cl)cc2c(Cl)cc(O)cc21"
class_name = "false (0)"

[[record]]
molecule = "C/C(=C1/CCC/C(=C(/C)c2ccccc2)C1=O)c1ccccc1"
class_name = "false (0)"

[[record]]
molecule = "NCCCNC(=O)c1csc(NC(=O)c2csc(NC(=O)CCCN)n2)n1"
class_name = "false (0)"

[[record]]
molecule = "O=C1C2[C@@H](C(=O)N1c1ccc(Br)cc1)C13C(=CC2([N+](=O)[O-])[C@@H]2C(=O)N(c4ccc(Br)cc4)C(=O)[C@@H]21)c1ccccc1N3c1ccccc1 (some centres not stated)"
class_name = "false (0)"

[[record]]
molecule = "O=C(NC1(C(=O)O)CCCC1)c1ccccc1"
class_name = "false (0)"


**Q:** Which outcome was assigned to "Cc1nc2c(c(=O)[nH]1)S/C(=C(/C#N)c1nc3ccccc3[nH]1)N2c1ccccc1" in this test?
**A:** false (0)

**Q:** Which outcome was assigned to "O=C(/C=C/c1cc(F)ccc1F)OCCc1ccccc1" in this test?
**A:** false (0)
